Please provide measured kcat for the entries that follow.
procedure.details: Activity of Beta-lactamase GES-6 K104, S170 mutant
Respond with the bare value in s⁻¹.

**Query** What value of kcat has been reported for the following compound? CO[C@@]1(NC(=O)Cc2cccs2)C(=O)N2C(C(=O)O)=C(COC(N)=O)CS[C@@H]21 [CEFOXITIN]
**Result** 12.1

**Query** What value of kcat has been reported for the following compound? CC(C)(O/N=C(\C(=O)N[C@@H]1C(=O)N2C(C(=O)[O-])=C(C[n+]3ccccc3)CS[C@H]12)c1csc(N)n1)C(=O)O [CEFTAZIDIME]
**Result** 9.3

**Query** What value of kcat has been reported for the following compound? `CC1(C)S[C@@H]2[C@H](NC(=O)Cc3ccccc3)C(=O)N2[C@H]1C(=O)O`
**Result** 27.2

**Query** What value of kcat has been reported for the following compound? C[C@@H](O)[C@H]1C(=O)N2C(C(=O)O)=C(SCCNC=N)C[C@H]12 [IMIPENEM ANHYDROUS]
**Result** 0.166

**Query** What value of kcat has been reported for the following compound? CO/N=C(\C(=O)N[C@@H]1C(=O)N2C(C(=O)O)=C(COC(C)=O)CS[C@H]12)c1csc(N)n1 [CEFOTAXIME]
**Result** 5.1

* * *

procedure.details: Inhibition of Beta-lactamase GES-13 K104, N170 mutant preincubated for 5 mins before substrate addition using cephalothin substrate by spectrophotometry
Please provide measured pIC50 for the entries that follow.
Worth noting: pIC50 values are minus log10 of concentrations stated in mol/L.

**Query** What value of pIC50 has been reported for the following compound? `O=C(O)[C@H]1/C(=C/CO)O[C@@H]2CC(=O)N21`
**Result** 7.05

**Query** What value of pIC50 has been reported for the following compound? `C[C@]1(Cn2ccnn2)[C@H](C(=O)O)N2C(=O)C[C@H]2S1(=O)=O`
**Result** 7.40

**Query** What value of pIC50 has been reported for the following compound? `CC1(C)[C@H](C(=O)O)N2C(=O)C[C@H]2S1(=O)=O`
**Result** 6.52

* * *

Please provide measured IC50 for the entries that follow.
procedure.details: Inhibition of Beta-lactamase GES-5 E104, S170 mutant preincubated for 5 mins before substrate addition using cephalothin substrate by spectrophotometry
Respond with the bare value in nM.

**Query** What value of IC50 has been reported for the following compound? `CC1(C)[C@H](C(=O)O)N2C(=O)C[C@H]2S1(=O)=O`
**Result** 4500

**Query** What value of IC50 has been reported for the following compound? `C[C@]1(Cn2ccnn2)[C@H](C(=O)O)N2C(=O)C[C@H]2S1(=O)=O`
**Result** 500

**Query** What value of IC50 has been reported for the following compound? `O=C(O)[C@H]1/C(=C/CO)O[C@@H]2CC(=O)N21`
**Result** 500

* * *

procedure.details: Ratio of Kcat to Km for Beta-lactamase GES-13 K104, N170 mutant
Assign labels as follows, please: 1.0 for kcat/Km below 100000 M⁻¹ s⁻¹; 0.0 for kcat/Km equal to or exceeding 100000 M⁻¹ s⁻¹.

**Query** Record `CO/N=C(\C(=O)N[C@@H]1C(=O)N2C(C(=O)O)=C(COC(C)=O)CS[C@H]12)c1csc(N)n1` : is its kcat/Km strictly below 100000 M⁻¹ s⁻¹?
**Result** 0.0

**Query** Record C[C@@H](O)[C@H]1C(=O)N2C(C(=O)O)=C(SCCNC=N)C[C@H]12 [IMIPENEM ANHYDROUS] : is its kcat/Km strictly below 100000 M⁻¹ s⁻¹?
**Result** 1.0

**Query** Record `C[C@H]1[C@H](NC(=O)/C(=N\OC(C)(C)C(=O)O)c2csc(N)n2)C(=O)N1S(=O)(=O)O` : is its kcat/Km strictly below 100000 M⁻¹ s⁻¹?
**Result** 1.0

**Query** Record `CC(C)(O/N=C(\C(=O)N[C@@H]1C(=O)N2C(C(=O)[O-])=C(C[n+]3ccccc3)CS[C@H]12)c1csc(N)n1)C(=O)O` : is its kcat/Km strictly below 100000 M⁻¹ s⁻¹?
**Result** 0.0
